# Experimental target: UniProt P18825
# Sequence (P18825 whole entry): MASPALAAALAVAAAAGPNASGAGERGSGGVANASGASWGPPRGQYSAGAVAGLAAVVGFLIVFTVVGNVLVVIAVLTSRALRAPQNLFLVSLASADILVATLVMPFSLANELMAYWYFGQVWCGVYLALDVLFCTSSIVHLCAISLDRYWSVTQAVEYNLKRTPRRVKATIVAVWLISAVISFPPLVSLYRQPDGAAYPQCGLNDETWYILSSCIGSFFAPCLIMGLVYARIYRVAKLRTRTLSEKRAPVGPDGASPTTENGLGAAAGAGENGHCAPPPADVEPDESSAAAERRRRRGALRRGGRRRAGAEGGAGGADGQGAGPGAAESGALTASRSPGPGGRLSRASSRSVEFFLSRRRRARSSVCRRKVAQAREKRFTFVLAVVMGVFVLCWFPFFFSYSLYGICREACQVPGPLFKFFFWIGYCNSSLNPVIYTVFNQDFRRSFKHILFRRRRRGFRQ
Property label: Ki (nM)
Lab book: enter the figure in nM, no units written.

Bench note: what Ki did Fc1ccc(COC2CCN(Cc3ccc4[nH]cnc4c3)CC2)cc1F [Compound 10a] show?
853

----------
# Procedure details: Human liver microsomal intrinsic clearance
# Format: in vitro ADME
# Condition info: human; well-stirred organ CL model, binding terms excluded
Property label: Predicted hepatic clearance hCLHEP

Compound	Data value
FC(F)(F)c1cccc(COC2CCN(Cc3cn4ccccc4n3)CC2)c1 [Compound 17c]	15.6 mL/min/kg
COc1ccc(CN2CCC[C@@H](OCc3ccc(F)c(C)c3)C2)cc1F [Compound 19b]	19.5 mL/min/kg
Fc1cc(COC2CCN(Cc3cn4ccccc4n3)CC2)ccc1Cl [Compound 17b]	13.8 mL/min/kg

What measured Predicted hepatic clearance hCLHEP goes with Cc1ccccc1CO[C@H]1CCCN(Cc2ccc3c(cnn3C)c2)C1 [Compound 13g] ?
19.0 mL/min/kg

Next compound up: Fc1cc(COC2CCN(Cc3ccc4[nH]ncc4c3)CC2)ccc1Cl [Compound 12b]
11.5 mL/min/kg

Another compound to look at: Cc1cc(NC(=O)CN2CCC(OCc3ccc(F)c(F)c3)CC2)ccc1F [Compound 18d]
14.3 mL/min/kg

Please do the same for Fc1ccc(COC2CCN(Cc3cn4ccccc4n3)CC2)cc1F [Compound 17a] as well.
<10 mL/min/kg

Likewise for Fc1ccc(COC2CCN(Cc3cc4ccc(Cl)cc4[nH]3)CC2)cc1F [Compound 14a] ?
10.8 mL/min/kg

Quick one: Cn1cnc2cc(CN3CCC(OCc4ccc(Cl)c(F)c4)CC3)ccc21 [Compound 11b]
<10 mL/min/kg

Input Fc1ccc(OC[C@@H]2CN(Cc3cn4ccccc4n3)CCO2)cc1F [Compound 17k]
13.6 mL/min/kg

Now give it for Cn1ncc2cc(CN3CCC(OCc4ccc(F)c(F)c4)CC3)ccc21 [Compound 13a] too.
12.5 mL/min/kg

Param item: Cc1c(Cl)cccc1NC(=O)CN1CCC(OCc2ccc(F)c(F)c2)CC1 [Compound 18a]
17.6 mL/min/kg

Same thing, different compound: COc1ccc(CN2CCC[C@H](OCc3ccc(C)cc3)C2)cc1F [Compound 19e]
19.7 mL/min/kg

Can you handle Cn1ncc2cc(CN3CCC(OCc4ccc(Cl)c(F)c4)CC3)ccc21 [Compound 13b] next?
13.7 mL/min/kg

----------
# Procedure details: Mouse liver microsomal intrinsic clearance
# Assay type: in vitro ADME
# Condition info: well-stirred organ CL model, binding terms excluded
Property label: Predicted hepatic clearance mCLHEP (mL/min/kg)
Numeric only. Scale: mL/min/kg

Molecule	Predicted hepatic clearance mCLHEP, mL/min/kg
Cc1cc(NC(=O)CN2CCC3(CCCN(Cc4ccc(F)c(F)c4)C3)C2)ccc1F (stereo not drawn) [Compound 24f]	81.5
Fc1ccc(OC[C@@H]2CN(Cc3cn4ccccc4n3)CCO2)cc1F [Compound 17k]	70.3
COc1ccc(CN2CCC[C@H](OCc3ccc(F)c(C)c3)C2)cc1F [Compound 19a]	86.8

So what does the record say about Predicted hepatic clearance mCLHEP for Fc1cc(COC2CCN(Cc3ccc4[nH]ncc4c3)CC2)ccc1Cl [Compound 12b] ?
40.0

Follow-up entry: COc1ccc(CN2CCC[C@@H](OCc3ccc(F)c(C)c3)C2)cc1F [Compound 19b]
82.4

----------
Parameter Predicted hepatic clearance mCLHEP: see the listing below.
# Procedure details: Mouse liver microsomal intrinsic clearance
# Assay type: in vitro ADME
# Condition info: well-stirred organ CL model, binding terms excluded
Just the number in mL/min/kg, nothing appended.

Molecule	Property label	Data value
Cc1c(Cl)cccc1NC(=O)CN1CCC(OCc2ccc(F)c(F)c2)CC1 [Compound 18a]	Predicted hepatic clearance mCLHEP	68.6

# evaluate next
Look at this molecule and give its reported Predicted hepatic clearance mCLHEP. FC(F)(F)c1cccc(COC2CCN(Cc3cn4ccccc4n3)CC2)c1 [Compound 17c]
56.3

----------
# Procedure details: Discrete mouse in vivo PK study, plasma and brain
# Condition info: brain, ip, 5 mg/kg
Property label: half-life
Put down the number, then write its unit next to it.

Molecule	half-life
Fc1cc(COC2CCN(Cc3ccc4[nH]cnc4c3)CC2)ccc1Cl [Compound 10b]	6.9 h

Now for a further molecule.
Report half-life for Fc1ccc(COC2CCN(Cc3ccc4[nH]cnc4c3)CC2)cc1F [Compound 10a] please.
9.1 h

----------
# Experimental target: α2A (Homo sapiens)
# Sequence (P08913 whole entry): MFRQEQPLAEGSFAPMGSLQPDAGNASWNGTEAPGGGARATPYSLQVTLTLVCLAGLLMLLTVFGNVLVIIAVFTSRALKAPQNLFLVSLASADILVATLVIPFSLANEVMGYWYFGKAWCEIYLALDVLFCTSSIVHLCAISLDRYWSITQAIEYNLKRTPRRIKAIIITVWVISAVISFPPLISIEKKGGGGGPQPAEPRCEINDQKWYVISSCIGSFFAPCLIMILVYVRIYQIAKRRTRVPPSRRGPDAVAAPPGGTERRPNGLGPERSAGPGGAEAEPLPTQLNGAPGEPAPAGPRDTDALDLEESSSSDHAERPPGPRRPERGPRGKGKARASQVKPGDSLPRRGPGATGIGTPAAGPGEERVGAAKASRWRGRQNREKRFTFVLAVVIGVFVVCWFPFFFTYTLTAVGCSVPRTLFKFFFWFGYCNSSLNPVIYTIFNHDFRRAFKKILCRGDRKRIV
Property label: pKi
As a rule, pKi stands for the negative log10 of the concentration, concentration in M.

Could you tell me which pKi is on file for Fc1ccc(CN2CCCC23CCN(Cc2cn4ccccc4n2)C3)cc1F (stereo not shown) [Compound 25a] ?
6.16

----------
# Procedure details: Discrete mouse in vivo PK study, plasma and brain
# Condition info: plasma, ip, 5 mg/kg
Measured half-life of individual entries
Could you give me the number in h? Just the number is fine.

Compound	Unit of measurement	half-life
Fc1cc(COC2CCN(Cc3ccc4[nH]cnc4c3)CC2)ccc1Cl [Compound 10b]	h	3.7

Requested field: half-life. Item: Fc1ccc(COC2CCN(Cc3ccc4[nH]cnc4c3)CC2)cc1F [Compound 10a]
2.1

----------
# key: entry, value: CLint scaled
# Procedure details: Mouse liver microsomal intrinsic clearance
# Format: in vitro ADME
# Condition info: liver microsomes

The following compounds have reported results that may help.
Compound	CLint scaled
Cn1cnc2cc(CN3CCC(OCc4ccc(Cl)c(F)c4)CC3)ccc21 [Compound 11b]	< 20 mL/min/kg
Cc1ccc(CO[C@H]2CCCN(Cc3cccc(F)c3)C2)cc1 [Compound 19g]	> 2400 mL/min/kg
COc1ccc(CN2CCC[C@H](OCc3ccc(C)cc3)C2)cc1F [Compound 19e]	1190 mL/min/kg
COc1ccc(CN2CCC[C@H](OCc3ccc(F)c(C)c3)C2)cc1F [Compound 19a]	> 2400 mL/min/kg

Consider the record given below.
Any idea what CLint scaled was measured for COc1ccc(CN2CCC[C@@H](OCc3ccc(F)c(C)c3)C2)cc1F [Compound 19b] ?
961 mL/min/kg

----------
We begin with a simple list: items and their reported Predicted hepatic clearance mCLHEP.
# Procedure details: Mouse liver microsomal intrinsic clearance
# Format: in vitro ADME
# Condition info: well-stirred organ CL model, binding terms excluded

Compound	Predicted hepatic clearance mCLHEP
Cn1cnc2cc(CN3CCC(OCc4ccc(Cl)c(F)c4)CC3)ccc21 [Compound 11b]	<16 mL/min/kg
Cn1ncc2cc(CN3CCC(OCc4ccc(Cl)c(F)c4)CC3)ccc21 [Compound 13b]	43.8 mL/min/kg
COc1ccc(CN2CCC[C@H](OCc3ccc(C)cc3)C2)cc1F [Compound 19e]	83.7 mL/min/kg
Fc1ccc(CN2CCCC23CCN(Cc2cn4ccccc4n2)C3)cc1F (stereo not shown) [Compound 25a]	79.8 mL/min/kg
Cc1cc(NC(=O)CN2CCC(OCc3ccc(F)c(F)c3)CC2)ccc1F [Compound 18d]	69.6 mL/min/kg
Fc1ccc(COC2CCN(Cc3ccc4[nH]cnc4c3)CC2)cc1F [Compound 10a]	46.0 mL/min/kg
Fc1cc(COC2CCN(Cc3cn4ccccc4n3)CC2)ccc1Cl [Compound 17b]	46.7 mL/min/kg
Cn1ncc2cc(CN3CCC(OCc4cccc(C(F)(F)F)c4)CC3)ccc21 [Compound 13c]	43.8 mL/min/kg

Entry under review: Cn1ncc2cc(CN3CCC(OCc4ccc(F)c(F)c4)CC3)ccc21 [Compound 13a] . Reported Predicted hepatic clearance mCLHEP?
48.2 mL/min/kg

Check Fc1cc(COC2CCN(Cc3ccc4[nH]cnc4c3)CC2)ccc1Cl [Compound 10b] too.
45.1 mL/min/kg

----------
# Procedure details: Mouse liver microsomal intrinsic clearance
# Format: in vitro ADME
# Condition info: well-stirred organ CL model, binding terms excluded
Each record here notes measured Predicted hepatic clearance mCLHEP.
Use mL/min/kg as the unit, but write only the number.

A selection of reference data follows.
Molecule	Unit of measurement	Predicted hepatic clearance mCLHEP
Cc1ccc(CO[C@H]2CCCN(Cc3ccc(C#N)cc3)C2)cc1 [Compound 19f]	mL/min/kg	76.0
Fc1ccc(COC2CCN(Cc3cn4ccccc4n3)CC2)cc1F [Compound 17a]	mL/min/kg	57.4

Please look up its Predicted hepatic clearance mCLHEP: Cc1ccccc1CO[C@H]1CCCN(Cc2ccc3c(cnn3C)c2)C1 [Compound 13g]
77.3

----------
# Procedure details: Mouse liver microsomal intrinsic clearance
# Type: in vitro ADME
# Condition info: well-stirred organ CL model, binding terms excluded
Property label: Predicted hepatic clearance mCLHEP (mL/min/kg)
Respond numerically; units are mL/min/kg and should not be typed.

Some solved entries appear below for comparison.
Molecule	Predicted hepatic clearance mCLHEP (mL/min/kg)
Cc1ccc(CO[C@H]2CCCN(Cc3cccc(F)c3)C2)cc1 [Compound 19g]	86.8
Fc1ccc(COC2CCN(Cc3cc4ccc(Cl)cc4[nH]3)CC2)cc1F [Compound 14a]	43.3

Continue with the next molecule.
Report Predicted hepatic clearance mCLHEP for Cc1nc(CN2CCC(OCc3ccc(Cl)c(F)c3)CC2)c2ccccn12 [Compound 16b] please.
62.0
